Quick reference for mortality at 1000 µg/mL among some molecules
- System: Mythimna separata
- method notes: Insecticidal activity against pre-third-instar larvae of Mythimna separata (Oriental armyworm) assessed as corrected mortality rate at 1 mg/ml measured after 10 days by the leaf-dipping method
- Format: functional
- experimental parameters: 240 h
measured metric: mortality at 1000 µg/mL

molecule=COc1cc2c(cc1OC)[C@@H](OC(=O)Cc1cccc3ccccc13)[C@H]1COC(=O)[C@@H]1[C@@H]2c1cc(OC)c(OC)c(OC)c1 measured_metric="mortality at 1000 µg/mL" value_reported=13.3%
molecule=CCCCCC(=O)O[C@H]1c2cc(OC)c(OC)cc2[C@@H](c2cc(OC)c(OC)c(OC)c2)[C@H]2C(=O)OC[C@@H]21 measured_metric="mortality at 1000 µg/mL" value_reported=6.7%
molecule=COc1cc([C@@H]2c3cc(OCc4ccccc4)c(OCc4ccccc4)cc3[C@@H](OC(=O)Cc3ccccc3)[C@H]3COC(=O)[C@H]23)cc(OC)c1OC measured_metric="mortality at 1000 µg/mL" value_reported=3.3%
molecule=CCCCCC(=O)O[C@@H]1c2cc(OCc3ccccc3)c(OCc3ccccc3)cc2[C@@H](c2cc(OC)c(OC)c(OC)c2)[C@H]2C(=O)OC[C@@H]21 measured_metric="mortality at 1000 µg/mL" value_reported=10%
molecule="COc1cc([C@@H]2c3cc(O)c(O)cc3[C@H](O)[C@H]3COC(=O)[C@H]23)cc(OC)c1OC [6,7-O,O-DEMETHYLENEPODOPHYLLOTOXIN]" measured_metric="mortality at 1000 µg/mL" value_reported=0%
molecule=COc1cc([C@@H]2c3cc(OCc4ccccc4)c(OCc4ccccc4)cc3[C@@H](OC(=O)c3cccc([N+](=O)[O-])c3)[C@H]3COC(=O)[C@H]23)cc(OC)c1OC measured_metric="mortality at 1000 µg/mL" value_reported=3.3%
molecule=COc1cc([C@@H]2c3cc(OCc4ccccc4)c(OCc4ccccc4)cc3[C@@H](OC(=O)Cc3cccc4ccccc34)[C@H]3COC(=O)[C@H]23)cc(OC)c1OC measured_metric="mortality at 1000 µg/mL" value_reported=3.3%
molecule=CCCCCCCC(=O)O[C@H]1c2cc(OC)c(OC)cc2[C@@H](c2cc(OC)c(OC)c(OC)c2)[C@H]2C(=O)OC[C@@H]21 measured_metric="mortality at 1000 µg/mL" value_reported=10%
molecule=CCCC(=O)O[C@@H]1c2cc(OC)c(OC)cc2[C@@H](c2cc(OC)c(OC)c(OC)c2)[C@H]2C(=O)OC[C@@H]21 measured_metric="mortality at 1000 µg/mL" value_reported=3.3%
molecule=COc1cc2c(cc1OC)[C@@H](OC(=O)c1cccc([N+](=O)[O-])c1)[C@H]1COC(=O)[C@@H]1[C@@H]2c1cc(OC)c(OC)c(OC)c1 measured_metric="mortality at 1000 µg/mL" value_reported=10%
molecule=CCCCCC(=O)O[C@@H]1c2cc(OC)c(OC)cc2[C@@H](c2cc(OC)c(OC)c(OC)c2)[C@H]2C(=O)OC[C@@H]21 measured_metric="mortality at 1000 µg/mL" value_reported=23.3%
molecule=CCCC(=O)O[C@H]1c2cc(OC)c(OC)cc2[C@@H](c2cc(OC)c(OC)c(OC)c2)[C@H]2C(=O)OC[C@@H]21 measured_metric="mortality at 1000 µg/mL" value_reported=6.7%
molecule=COc1cc2c(cc1OC)[C@H](OC(=O)CCl)[C@H]1COC(=O)[C@@H]1[C@@H]2c1cc(OC)c(OC)c(OC)c1 measured_metric="mortality at 1000 µg/mL" value_reported=0%
molecule=COc1cc2c(cc1OC)[C@@H](OC(=O)Cc1ccccc1)[C@H]1COC(=O)[C@@H]1[C@@H]2c1cc(OC)c(OC)c(OC)c1 measured_metric="mortality at 1000 µg/mL" value_reported=10%
molecule=COc1cc2c(cc1OC)[C@H](OC(=O)c1cccc([N+](=O)[O-])c1)[C@H]1COC(=O)[C@@H]1[C@@H]2c1cc(OC)c(OC)c(OC)c1 measured_metric="mortality at 1000 µg/mL" value_reported=3.3%
molecule=COc1cc2c(cc1OC)[C@H](OC(=O)c1ccccc1)[C@H]1COC(=O)[C@@H]1[C@@H]2c1cc(OC)c(OC)c(OC)c1 measured_metric="mortality at 1000 µg/mL" value_reported=10%
molecule=COc1cc2c(cc1OC)[C@H](OC(=O)c1cccc(Cl)c1)[C@H]1COC(=O)[C@@H]1[C@@H]2c1cc(OC)c(OC)c(OC)c1 measured_metric="mortality at 1000 µg/mL" value_reported=3.3%
molecule=COc1cc2c(cc1OC)[C@H](OC(=O)Cc1cccc3ccccc13)[C@H]1COC(=O)[C@@H]1[C@@H]2c1cc(OC)c(OC)c(OC)c1 measured_metric="mortality at 1000 µg/mL" value_reported=10%
molecule=COc1cc2c(cc1OC)[C@H](OC(=O)Cc1ccccc1)[C@H]1COC(=O)[C@@H]1[C@@H]2c1cc(OC)c(OC)c(OC)c1 measured_metric="mortality at 1000 µg/mL" value_reported=3.3%
molecule=COc1cc2c(cc1OC)[C@H](OC(C)=O)[C@H]1COC(=O)[C@@H]1[C@@H]2c1cc(OC)c(OC)c(OC)c1 measured_metric="mortality at 1000 µg/mL" value_reported=10%
molecule=COc1cc2c(cc1OC)[C@H](OC(=O)c1ccc([N+](=O)[O-])cc1)[C@H]1COC(=O)[C@@H]1[C@@H]2c1cc(OC)c(OC)c(OC)c1 measured_metric="mortality at 1000 µg/mL" value_reported=3.3%
